- test_description: estimated solubility by adding test solvent in aliquots to weighed solid, visual inspection
- Type: physicochemical
- condition_notes: organic solvent or mixture, thermodynamic from solid; dichloromethane (DCM); solubility without temperature; read-out: Solubility
- Description: Solubilities of the compound of Formula (I), free base, in a few solvents were estimated. The experiments were carried out by adding the test solvent in aliquots to weighed portions of solid. […] Solubility numbers were calculated by dividing the weight of the sample by total amount of solvent used to dissolve the sample. The actual solubilities may be greater than the numbers calculated because of the use of solvent aliquots that were too large or because of slow dissolution rates. […]
experimental_readout: solubility

[ask] Entry CN1CCN([C@@H]2CCCN(c3cnc(C(N)=O)c(Nc4ccc(C5CCN(CC6CCN(c7ccc(C(=O)N[C@H]8CCC(=O)NC8=O)nc7)CC6)CC5)cc4)n3)C2)C1=O [free base compound of Formula (I)] : reported solubility = ?
[reply] 17 mg/mL

---

- test_description: estimated solubility by adding test solvent in aliquots to weighed solid, visual inspection
- Assay type: physicochemical
- condition_notes: aqueous with cosolvent or surfactant or cyclodextrin, thermodynamic from solid; acetone/H2O (70/30), aw 0.85; at 60° C.; read-out: Solubility
experimental_readout: solubility

[ask] Entry CN1CCN([C@@H]2CCCN(c3cnc(C(N)=O)c(Nc4ccc(C5CCN(CC6CCN(c7ccc(C(=O)N[C@H]8CCC(=O)NC8=O)nc7)CC6)CC5)cc4)n3)C2)C1=O [free base compound of Formula (I)] : reported solubility = ?
[reply] < 2000 µg/mL

---

- test_description: estimated solubility by adding test solvent in aliquots to weighed solid, visual inspection
- Assay type: physicochemical
- condition_notes: organic solvent or mixture, thermodynamic from solid; methyl ethyl ketone (MEK); solubility without temperature; read-out: Solubility
experimental_readout: solubility

[ask] Entry CN1CCN([C@@H]2CCCN(c3cnc(C(N)=O)c(Nc4ccc(C5CCN(CC6CCN(c7ccc(C(=O)N[C@H]8CCC(=O)NC8=O)nc7)CC6)CC5)cc4)n3)C2)C1=O [free base compound of Formula (I)] : reported solubility = ?
[reply] < 1000 µg/mL

---

- test_description: estimated solubility by adding test solvent in aliquots to weighed solid, visual inspection
- Assay type: physicochemical
- condition_notes: organic solvent or mixture, thermodynamic from solid; 1,2-dichloroethane; at 45° C.; read-out: Solubility
experimental_readout: solubility (µg/mL)
Numbers only here, please. The scale is µg/mL.

[ask] Entry CN1CCN([C@@H]2CCCN(c3cnc(C(N)=O)c(Nc4ccc(C5CCN(CC6CCN(c7ccc(C(=O)N[C@H]8CCC(=O)NC8=O)nc7)CC6)CC5)cc4)n3)C2)C1=O [free base compound of Formula (I)] : reported solubility = ?
[reply] 2000

---

- test_description: estimated solubility by adding test solvent in aliquots to weighed solid, visual inspection
- Type: physicochemical
- condition_notes: aqueous with cosolvent or surfactant or cyclodextrin, thermodynamic from solid; 1,4-dioxane/H2O (95/5), aw 0.4; solubility without temperature; read-out: Solubility
experimental_readout: solubility (µg/mL)
Numbers only here, please. The scale is µg/mL.

[ask] Entry CN1CCN([C@@H]2CCCN(c3cnc(C(N)=O)c(Nc4ccc(C5CCN(CC6CCN(c7ccc(C(=O)N[C@H]8CCC(=O)NC8=O)nc7)CC6)CC5)cc4)n3)C2)C1=O.O=C(O)/C=C/C(=O)O [Fumarate Salt Form A] : reported solubility = ?
[reply] 1000

---

- test_description: estimated solubility by adding test solvent in aliquots to weighed solid, visual inspection
- Assay type: physicochemical
- condition_notes: aqueous with cosolvent or surfactant or cyclodextrin, thermodynamic from solid; acetonitrile/H2O (45/55), aw 0.9; solubility without temperature; read-out: Solubility
experimental_readout: solubility

[ask] Entry CN1CCN([C@@H]2CCCN(c3cnc(C(N)=O)c(Nc4ccc(C5CCN(CC6CCN(c7ccc(C(=O)N[C@H]8CCC(=O)NC8=O)nc7)CC6)CC5)cc4)n3)C2)C1=O.O=C(O)/C=C/C(=O)O [Fumarate Salt Form A] : reported solubility = ?
[reply] > 10000 µg/mL

---

- test_description: estimated solubility by adding test solvent in aliquots to weighed solid, visual inspection
- Assay type: physicochemical
- condition_notes: aqueous with cosolvent or surfactant or cyclodextrin, thermodynamic from solid; 2-propanol/H2O (80/20), aw 0.9; at 45° C.; read-out: Solubility
experimental_readout: solubility

[ask] Entry CN1CCN([C@@H]2CCCN(c3cnc(C(N)=O)c(Nc4ccc(C5CCN(CC6CCN(c7ccc(C(=O)N[C@H]8CCC(=O)NC8=O)nc7)CC6)CC5)cc4)n3)C2)C1=O.O=C(O)/C=C/C(=O)O [Fumarate Salt Form A] : reported solubility = ?
[reply] > 1000 µg/mL

---

- test_description: estimated solubility by adding test solvent in aliquots to weighed solid, visual inspection
- Format: physicochemical
- condition_notes: aqueous with cosolvent or surfactant or cyclodextrin, thermodynamic from solid; acetone/H2O (70/30), aw 0.85; solubility without temperature; read-out: Solubility
experimental_readout: solubility (µg/mL)
Numbers only here, please. The scale is µg/mL.

[ask] Entry CN1CCN([C@@H]2CCCN(c3cnc(C(N)=O)c(Nc4ccc(C5CCN(CC6CCN(c7ccc(C(=O)N[C@H]8CCC(=O)NC8=O)nc7)CC6)CC5)cc4)n3)C2)C1=O.O=C(O)/C=C/C(=O)O [Fumarate Salt Form A] : reported solubility = ?
[reply] 6000

---

- test_description: initial physical stability evaluation at various relative humidity, room temperature, ~1 week (XRPD, Karl Fischer)
- Format: physicochemical
- condition_notes: RT, 58% RH
experimental_readout: KF-Oven water

[ask] Entry CN1CCN([C@@H]2CCCN(c3cnc(C(N)=O)c(Nc4ccc(C5CCN(CC6CCN(c7ccc(C(=O)N[C@H]8CCC(=O)NC8=O)nc7)CC6)CC5)cc4)n3)C2)C1=O.O=C(O)/C=C/C(=O)O [Fumarate Salt Form A] : reported KF-Oven water = ?
[reply] 0.9 mol/mol

---

- test_description: estimated solubility by adding test solvent in aliquots to weighed solid, visual inspection
- Type: physicochemical
- condition_notes: organic solvent or mixture, thermodynamic from solid; tetrahydrofuran (THF); at 60° C.; read-out: Solubility
experimental_readout: solubility

[ask] Entry CN1CCN([C@@H]2CCCN(c3cnc(C(N)=O)c(Nc4ccc(C5CCN(CC6CCN(c7ccc(C(=O)N[C@H]8CCC(=O)NC8=O)nc7)CC6)CC5)cc4)n3)C2)C1=O.O=C(O)/C=C/C(=O)O [Fumarate Salt Form A] : reported solubility = ?
[reply] < 1000 µg/mL

---

- test_description: estimated solubility by adding test solvent in aliquots to weighed solid, visual inspection
- Type: physicochemical
- condition_notes: organic solvent or mixture, thermodynamic from solid; methyl tert-butyl ether (MTBE); at 60° C.; read-out: Solubility
experimental_readout: solubility

[ask] Entry CN1CCN([C@@H]2CCCN(c3cnc(C(N)=O)c(Nc4ccc(C5CCN(CC6CCN(c7ccc(C(=O)N[C@H]8CCC(=O)NC8=O)nc7)CC6)CC5)cc4)n3)C2)C1=O [free base compound of Formula (I)] : reported solubility = ?
[reply] < 1000 µg/mL

---

- test_description: initial physical stability evaluation at various relative humidity, room temperature, ~1 week (XRPD, Karl Fischer)
- Assay type: physicochemical
- condition_notes: RT, 39% RH
experimental_readout: KF-Oven water
The reply should read as a number followed by its unit.

[ask] Entry CN1CCN([C@@H]2CCCN(c3cnc(C(N)=O)c(Nc4ccc(C5CCN(CC6CCN(c7ccc(C(=O)N[C@H]8CCC(=O)NC8=O)nc7)CC6)CC5)cc4)n3)C2)C1=O.O=C(O)/C=C/C(=O)O [Fumarate Salt Form A] : reported KF-Oven water = ?
[reply] 0.9 mol/mol

---

- test_description: estimated solubility by adding test solvent in aliquots to weighed solid, visual inspection
- Format: physicochemical
- condition_notes: aqueous with cosolvent or surfactant or cyclodextrin, thermodynamic from solid; 2-propanol/H2O (80/20), aw 0.9; at 60° C.; read-out: Solubility
experimental_readout: solubility

[ask] Entry CN1CCN([C@@H]2CCCN(c3cnc(C(N)=O)c(Nc4ccc(C5CCN(CC6CCN(c7ccc(C(=O)N[C@H]8CCC(=O)NC8=O)nc7)CC6)CC5)cc4)n3)C2)C1=O [free base compound of Formula (I)] : reported solubility = ?
[reply] < 2000 µg/mL

---

- test_description: estimated solubility by adding test solvent in aliquots to weighed solid, visual inspection
- Assay type: physicochemical
- condition_notes: organic solvent or mixture, thermodynamic from solid; ethyl acetate (EtOAc); solubility without temperature; read-out: Solubility
experimental_readout: solubility

[ask] Entry CN1CCN([C@@H]2CCCN(c3cnc(C(N)=O)c(Nc4ccc(C5CCN(CC6CCN(c7ccc(C(=O)N[C@H]8CCC(=O)NC8=O)nc7)CC6)CC5)cc4)n3)C2)C1=O [free base compound of Formula (I)] : reported solubility = ?
[reply] < 1000 µg/mL

---

- test_description: estimated solubility by adding test solvent in aliquots to weighed solid, visual inspection
- Format: physicochemical
- condition_notes: organic solvent or mixture, thermodynamic from solid; ethanol (EtOH); at 60° C.; read-out: Solubility
experimental_readout: solubility

[ask] Entry CN1CCN([C@@H]2CCCN(c3cnc(C(N)=O)c(Nc4ccc(C5CCN(CC6CCN(c7ccc(C(=O)N[C@H]8CCC(=O)NC8=O)nc7)CC6)CC5)cc4)n3)C2)C1=O.O=C(O)/C=C/C(=O)O [Fumarate Salt Form A] : reported solubility = ?
[reply] < 1000 µg/mL
